Just for reference, the supplement of paper PMC10065799 is where these values come from.

Molecular target: FGFR3 (UniProt P22607)
Sequence (P22607 whole entry, looked up): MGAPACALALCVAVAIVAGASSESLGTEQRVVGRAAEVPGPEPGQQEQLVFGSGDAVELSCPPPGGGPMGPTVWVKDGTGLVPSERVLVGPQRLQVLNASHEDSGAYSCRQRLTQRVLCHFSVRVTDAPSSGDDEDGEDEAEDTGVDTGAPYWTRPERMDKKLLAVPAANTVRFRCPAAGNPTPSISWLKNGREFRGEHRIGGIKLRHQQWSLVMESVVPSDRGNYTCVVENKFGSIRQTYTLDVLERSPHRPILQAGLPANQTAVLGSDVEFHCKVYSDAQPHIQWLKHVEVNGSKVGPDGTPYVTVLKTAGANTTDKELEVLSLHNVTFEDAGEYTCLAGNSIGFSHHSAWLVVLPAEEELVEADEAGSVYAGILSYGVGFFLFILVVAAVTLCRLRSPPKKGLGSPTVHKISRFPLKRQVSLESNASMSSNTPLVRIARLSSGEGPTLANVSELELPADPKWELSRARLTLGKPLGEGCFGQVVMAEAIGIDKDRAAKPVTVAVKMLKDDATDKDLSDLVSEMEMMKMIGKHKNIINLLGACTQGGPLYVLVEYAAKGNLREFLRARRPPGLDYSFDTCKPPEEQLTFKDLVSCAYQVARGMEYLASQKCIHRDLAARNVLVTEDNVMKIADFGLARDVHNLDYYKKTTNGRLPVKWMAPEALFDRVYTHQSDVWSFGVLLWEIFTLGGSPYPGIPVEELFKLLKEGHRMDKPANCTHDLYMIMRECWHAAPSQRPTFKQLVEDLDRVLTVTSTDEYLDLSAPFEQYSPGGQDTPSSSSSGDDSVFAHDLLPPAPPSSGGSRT
Test: phosphorylation enrichment, bacterial display (enrichment ratio); higher = better substrate or ligand; peptides without Tyr show the background;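 also: 11-residue human phosphosite peptides and single-mutation variants displayed on the E. coli surface, counted by deep sequencing, each peptide's frequency after selection divided by its frequency in the unselected input library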;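 also: frequency after pTyr selection over input frequency; kinase dosed for 20-30% of maximal phosphorylation in three min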
experimentalReadout: phosphorylation enrichment

{"entrySequence": "IGKAGYTDKMV [ENO1_Y236_V240M]", "phosphorylation enrichment": 0.367}
{"entrySequence": "FSDPDYLAAVD [GLB1_Y154_S149F]", "phosphorylation enrichment": 0.691}
{"entrySequence": "LTDRGYSFVTT [ACTA1_Y200_E197D]", "phosphorylation enrichment": 0.756}
{"entrySequence": "RRAVKYLQMVG [AVPR2_Y117_C112R]", "phosphorylation enrichment": 0.629}
{"entrySequence": "TLLSAYQIPRT [GAB2_Y324_P320L]", "phosphorylation enrichment": 0.531}
{"entrySequence": "HHFAAYFQQGD [GPI_Y351_R347H]", "phosphorylation enrichment": 1.19}

**Query** Please look up its phosphorylation enrichment: YEEDSYVERSQ [RET_Y905_K907E]
**Result** 0.961

**Query** Let us now turn to MENFIYESMRF [CYP19A1_Y361_YF]
**Result** 0.577

**Query** Let us now turn to YSSLGYPPPEG [ZSWIM4_Y87]
**Result** 0.821

**Query** Let us now turn to WFISFYPQVIM [CTNS_Y143_S139F]
**Result** 0.838

**Query** Let us now turn to EYKKKYSDADI [CKAP5_Y1860]
**Result** 0.475

**Query** Let us now turn to IVWDSYTTNKV [GNB3_Y85]
**Result** 0.635

**Query** Let us now turn to ADQLDYIKALN [HPRT1_Y81_L78Q]
**Result** 0.608

**Query** Let us now turn to DTYDPYLDVAL [USP36_Y268]
**Result** 0.853
